Test: recombinant barcode read abundance after kanamycin selection (control-corrected) (log10(CPM+1)); higher = more efficient recombination; sequences stand for … in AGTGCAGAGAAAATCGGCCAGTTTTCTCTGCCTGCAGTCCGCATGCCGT…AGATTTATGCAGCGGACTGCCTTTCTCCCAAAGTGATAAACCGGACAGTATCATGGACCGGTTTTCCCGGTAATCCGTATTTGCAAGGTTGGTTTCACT; site = the 11-nt target;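 further: IS621 recombinase and bridge RNA in Escherichia coli cells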
parameter_measured: recombinant barcode read abundance (log10)
Field format: numeric only.

Please review the entries below; each comes with its answer.
TAGGCGTCTTGGGTTCTAACCTGTTGCAG (site TAGCCTTCTCT) : 0.0835
ACATCAACTTGGGTTCTAACCTGTTGCCT (site ACTTCAACTAG) : 0.0926
GACTATTCTTGGGTTCTAACCTGTTGCCT (site GACTATTCTAG) : 0.212

Query: Sample ACAAGCACTTGGGTTCTAACCTGTTGCCT (site ACAAGCACTAG) — what was its recombinant barcode read abundance (log10)?
Reply: 1.46

Query: Request: CCATATGCTTGGGTTCTAACCTGTTGCCT (site CCATATGCTAG)
Reply: 0.148

Query: Then what about the sequence TCATAGCCTTGGGTTCTAACCTGTTGCTG (site TCAAAGCCTCA) ?
Reply: 0.131

Query: GGACCATCTTGGGTTCTAACCTGTTGCCT (site GGACGATCTAG) ?
Reply: 0.146

Query: Please give the result for TCTGATCCTTGGGTTCTAACCTGTTGCCT (site TCTGATCCTAG) too.
Reply: 0.7

Query: Also need AGCAGAGCTTGGGTTCTAACCTGTTGCGG (site AGCAGAGCTCT) , thanks.
Reply: 1.1

Query: Now give it for CTACAGACTTGGGTTCTAACCTGTTGCGT (site CTACAGACTGC) too.
Reply: 0.155

Query: And the next one, GGCCGGACTTGGGTTCTAACCTGTTGCCT (site GGCCGGTCTAG) ?
Reply: 0.021

Query: Field entry: GGGGCTTCTTGGGTTCTAACCTGTTGCCT (site GCGGCTTCTAG)
Reply: 0.207

Query: Query CACTCTGCTTGGGTTCTAACCTGTTGCCT (site CAATCTGCTAG) next
Reply: 0.617

Query: Next entry: CTAGTGACTTGGGTTCTAACCTGTTGCGG (site CTAGTGACTTC)
Reply: 0.352

Query: What about this sequence? GGCATCCCTTGGGTTCTAACCTGTTGCCT (site GGCATCCCTAG)
Reply: 0.337

Query: Now this one: TCGAACGCTTGGGTTCTAACCTGTTGCTT (site CACGGGACTCT)
Reply: 0.115

Query: Now the sequence CTATTTCCTTGGGTTCTAACCTGTTGCCT (site CTATTTCCTAG)
Reply: 0.284

Query: Can you handle GGGATGTCTTGGGTTCTAACCTGTTGCCT (site GTGATGTCTAG) next?
Reply: 0.211

Query: Likewise for CGTAGGGCTTGGGTTCTAACCTGTTGCCG (site AGTAGGGCTCT) ?
Reply: 0.103

Query: # iterate: TCCCCGGCTTGGGTTCTAACCTGTTGCGG (site CAAAACTCTAA)
Reply: 0.262

Query: Next record, please: ACAAGGGCTTGGGTTCTAACCTGTTGCCT (site ACAAAGACTAG)
Reply: 0.261
